- EXPERIMENTAL_DETAILS: Single-dose pharmacokinetic study, oral and intravenous, in SD rats;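 further: read-out is MRTlast mean residence time to last sample in hours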
- Type: in vivo, SD rat
- ASSAY_SETUP: male, SD, rat, plasma, po, 10 mg/kg, male SD rats, oral 10 mg/kg, Average (Table 11)
REPORTED_METRIC: MRT last (h)
Respond numerically; units are h and should not be typed.

# query: MRT last of entry CCc1nc2ccccn2c1C(=O)c1cc(Br)c(O)c(C#N)c1 [Form 5D]
5.95

----------
- EXPERIMENTAL_DETAILS: Solubility in water, buffers and bio-relevant media (37° C., 24 h shaking, HPLC)
- Type: physicochemical
- ASSAY_SETUP: SGF, 37° C., 24 h
REPORTED_METRIC: Solubility (µg/mL)
Respond numerically; units are µg/mL and should not be typed.

Examples with their reported Solubility follow.
>>> print(df.to_string())
                                   molecule  value_observed
0  CCc1nc2ccccn2c1C(=O)c1cc(Br)c(O)c(C#N)c1 [Form 5D]             7.4
1  CCc1nc2ccccn2c1C(=O)c1cc(Br)c(O)c(C#N)c1 [Form 2]             3.0
2  CCc1nc2ccccn2c1C(=O)c1cc(Br)c(O)c(C#N)c1 [Form 1]             2.9
3  CCc1nc2ccccn2c1C(=O)c1cc(Br)c(O)c(C#N)c1 [Form 6]             3.3

# query: Solubility of entry CCc1nc2ccccn2c1C(=O)c1cc(Br)c(O)c(C#N)c1 [Form 8]
3.5

# query: Solubility of entry CCc1nc2ccccn2c1C(=O)c1cc(Br)c(O)c(C#N)c1 [Form 11]
5.8
